- Measured On: T1, human CD8A-Fc (in house) (human, UniProt P01732 22-182, limits assumed)
- T1 construct: captured by goat anti-human Fc on the ProteOn chip; also called hCD8A-Fc; recombinant human CD8 alpha; not shown: linker/tag and Fc of human IgG1
- Protocol Notes: SPR (ProteOn), captured hCD8A-Fc
Value Type: log10 of koff (log10 of the value in s⁻¹)
Base-10 log of koff, unit s⁻¹.

Lookup: Quote log10 of koff reported for P283DR9P1364_E8 (designed binder, FN3 domain) LPAPKNLVVSRVTEDSARLSWTAPDAAFDSFSIAYPEWPVHGEAIVLTVPGSERSYDLTGLKPGTEYFVIIYGVKGGVLSEPLSAIFTT please.
Found: -3.12
